Give measured MFI for each item. Keep answers brief.
- subject-of-test: T1, cynomolgus TIM-3 on isolated cyno CD14+ monocytes (cynomolgus)
- T1 construct: whole, on cells
- assay-procedure: flow cytometry, cyno CD14+ monocytes cyno1
Please give a number only; it is taken to be in MFI.

Ask: Quick one: MFI of Tim3_0016 variant (Tim3_0018) (antibody, V domains shown, also called TIM3-0016 variant (0018); aTim3 0018) VH: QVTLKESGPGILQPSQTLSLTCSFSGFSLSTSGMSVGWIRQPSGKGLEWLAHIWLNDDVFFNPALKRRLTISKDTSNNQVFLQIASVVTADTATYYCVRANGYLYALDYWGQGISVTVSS VL: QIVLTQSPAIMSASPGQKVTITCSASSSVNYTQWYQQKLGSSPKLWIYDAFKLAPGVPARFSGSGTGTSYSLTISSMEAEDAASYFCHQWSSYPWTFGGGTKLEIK ?
Result: 301

Ask: Quick one: MFI of Tim3_0030 (antibody, V domains shown) VH: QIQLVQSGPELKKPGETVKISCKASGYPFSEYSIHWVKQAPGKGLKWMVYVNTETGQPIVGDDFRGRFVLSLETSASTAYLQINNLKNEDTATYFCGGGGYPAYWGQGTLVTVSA VL: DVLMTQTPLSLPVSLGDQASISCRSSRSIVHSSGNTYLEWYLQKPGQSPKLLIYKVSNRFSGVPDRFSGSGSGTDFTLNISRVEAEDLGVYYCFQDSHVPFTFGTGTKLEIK ?
Result: 119

Ask: Quick one: MFI of Tim3_0038 (antibody, V domains shown) VH: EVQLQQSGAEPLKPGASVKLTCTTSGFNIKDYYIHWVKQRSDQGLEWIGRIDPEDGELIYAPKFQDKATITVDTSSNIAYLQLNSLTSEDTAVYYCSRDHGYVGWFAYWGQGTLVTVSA VL: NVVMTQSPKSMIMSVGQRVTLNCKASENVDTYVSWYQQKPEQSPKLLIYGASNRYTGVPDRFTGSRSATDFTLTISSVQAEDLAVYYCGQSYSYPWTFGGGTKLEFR ?
Result: 97

Ask: Quick one: MFI of Tim3_0021 (antibody, V domains shown) VH: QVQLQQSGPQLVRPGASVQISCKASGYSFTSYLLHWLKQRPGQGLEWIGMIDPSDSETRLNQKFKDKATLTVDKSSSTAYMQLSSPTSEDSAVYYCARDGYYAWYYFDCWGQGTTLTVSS VL: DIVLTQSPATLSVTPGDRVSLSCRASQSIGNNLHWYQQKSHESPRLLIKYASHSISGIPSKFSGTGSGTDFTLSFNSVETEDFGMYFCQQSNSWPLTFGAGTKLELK ?
Result: 348

Ask: Quick one: MFI of Tim3_0026 (antibody, V domains shown) VH: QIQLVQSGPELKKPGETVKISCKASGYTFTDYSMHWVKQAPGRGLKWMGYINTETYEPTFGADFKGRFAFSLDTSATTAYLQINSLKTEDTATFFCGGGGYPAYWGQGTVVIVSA VL: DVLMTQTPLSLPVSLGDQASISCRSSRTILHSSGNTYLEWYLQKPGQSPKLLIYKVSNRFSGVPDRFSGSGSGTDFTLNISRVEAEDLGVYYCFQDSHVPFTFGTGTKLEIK ?
Result: 137

Ask: Quick one: MFI of Tim3_0033 (antibody, V domains shown) VH: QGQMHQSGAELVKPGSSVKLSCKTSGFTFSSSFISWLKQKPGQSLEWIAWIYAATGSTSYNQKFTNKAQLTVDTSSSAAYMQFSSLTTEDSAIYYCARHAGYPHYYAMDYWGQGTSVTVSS VL: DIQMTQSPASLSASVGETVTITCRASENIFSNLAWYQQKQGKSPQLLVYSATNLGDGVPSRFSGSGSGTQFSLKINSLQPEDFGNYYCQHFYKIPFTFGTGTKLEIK ?
Result: 71

Ref: patent US20210087291A1
